Listed below are compounds with pIC50 for PIK3CD (Human), each taken from published literature.
pIC50: −log10 of the molar value.

Some entries whose results are on file:
* Cc1ccccc1-n1c(Cn2nc(Cl)c3c(N)ncnc32)nc2nccc(C)c2c1=O | > 7.00
* COc1ncc(-c2nc(N3CCOCC3)nc3c(CN4CCN(C(C)(C)C)CC4)c(C)sc23)cc1NS(=O)(=O)C1CC1 | 8.41
* C[C@H](Nc1ncnc2[nH]cnc12)c1cc2cccc(-c3cnn(C)c3)c2c(OCCN2CCCC2)n1 | > 7.00

### Prompt Entry under review: Cc1cccc2cc(Cn3nc(-c4ccc5nc(N)oc5c4)c4c(N)ncnc43)n(-c3ccccc3)c(=O)c12 . Reported pIC50?
### Response > 6.00

### Prompt Item under review: Nc1nc2cc(-c3ccc4ncc(C(=O)NCCO)n4c3)ccc2o1 . Reported pIC50?
### Response > 6.00

### Prompt Which pIC50 is listed for Nc1nc2cc(-c3ccc4ncc(C(=O)N5CCS(=O)(=O)CC5)n4c3)ccc2o1 ?
### Response < 5.00

### Prompt Look up pIC50: COc1ncc(-c2nc(N3CCOCC3)nc3c(CN4CCN(CC(F)(F)F)CC4)c(C)sc23)cc1NS(=O)(=O)C1CC1
### Response 7.33

### Prompt Which pIC50 is listed for Cc1nc2ccc(-c3ccc4oc(N)nc4c3)cn2c1C(=O)N1CCOCC1 ?
### Response < 5.00

---

Field: IC50. System: PIK3CD (Human) (UniProt O00329). Provenance: assorted publications.

Completed entries (count: 10):
• OC1CCC(N2CCC(CNc3nc(N4CCOCC4)cc(-n4c(C(F)F)nc5ccccc54)n3)CC2)CC1 (stereo not shown) = 35 nM
• Cc1nn(C(C)c2cc(Cl)c(C#N)c3c2OCCN(CCO)C3)c2ncnc(N)c12 (stereo not shown) = ≤ 100 nM
• CS(=O)(=O)N1CCC(N2CCC(CNc3nc(N4CCOCC4)cc(-n4c(C(F)F)nc5ccccc54)n3)CC2)CC1 = 14 nM
• CN1CCc2cc(Nc3ncc4cc(C#N)c(=O)n(C5CCCC5)c4n3)ccc2C1 = 384 nM
• Cc1cccc2cc(C(C)Nc3ncnc4[nH]cnc34)n(C3CCC3)c(=O)c12 (stereo not shown) = < 100 nM
• CCNc1nc2ccc(-c3ccc4c(c3)CN(c3ccnc5cc(F)ccc35)CCO4)cc2[nH]1 = 162 nM
• COc1ncc(-c2nc(N3CCOCC3)nc3c(CN4CCN(C5CCOCC5)CC4)csc23)cc1NS(C)(=O)=O = 4.2 nM
• Nc1nc2cc(-c3ccc4ncnc(NC5CCOCC5)c4c3)ccc2o1 = < 100 nM
• C[C@H](NC(=O)c1nc(-c2ccccc2)cnc1N)c1cc2cccc(Cl)c2c(=O)n1-c1ccccc1 = > 10000 nM
• C[C@H](NC(=O)c1nccnc1N)c1cc2cccc(-c3cc[nH]n3)c2c(=O)n1-c1ccccc1 = 100 to 1000 nM

### Prompt Recorded IC50 for C[C@H](NC(=O)c1c(N)nn2cccnc12)c1c(Br)c2cccc(Cl)c2c(=O)n1-c1ccccc1 with PIK3CD (Human) (UniProt O00329), please?
### Response 100 to 1000 nM

### Prompt Recall the recorded IC50 for C[C@H](NC(=O)c1c(N)nn2cccnc12)c1cc2cccc(Cl)c2c(=O)n1CCN(C)S(C)(=O)=O with PIK3CD (Human) (UniProt O00329) and state it.
### Response 100 to 1000 nM

### Prompt I'm curious: which IC50 was measured for C[C@H](Nc1ncnc2[nH]cnc12)c1cc2cccc(Cl)c2c([S+]([O-])CCN2CCCC2)n1 (stereo partly shown) tested on PIK3CD (Human) (UniProt O00329)?
### Response < 100 nM

### Prompt Lookup: IC50 / PIK3CD (Human) (UniProt O00329) / CN1CCN(c2cnc3ccc(-c4ccc5nc(N)oc5c4)cc3n2)CC1
### Response > 10000 nM

### Prompt Give PIK3CD (Human) (UniProt O00329) IC50 for Cc1csc2nc(Cn3nc(Cl)c4c(N)ncnc43)n(-c3ccccc3C(F)(F)F)c(=O)c12
### Response < 100 nM

### Prompt What reported IC50 corresponds to Cc1cccc2cc([C@H](C)Nc3ncnc4[nH]ncc34)n(-c3ccccc3)c(=O)c12 on PIK3CD (Human) (UniProt O00329)?
### Response < 1000 nM
